- Tested on: HEK-293T
- PROCEDURE SUMMARY: Incucyte cell viability with HEK293T; note: unitless GR value; below 1 slowed growth and below 0 cell loss
- Format: toxicity, cell-based
- CONDITION NOTES: human, 6 h, 10 µM, compound concentration 10 uM, replicate number 1
Below: a set of entries, each annotated with reported Growth Rate.
RECORDED ENDPOINT: Growth Rate

COMPOUND: Br.CO[C@H]1CC=C2CCN3CCC4=C(CC(=O)OC4)[C@]23C1
RECORDED ENDPOINT: Growth Rate
ENDPOINT VALUE: 0.59
--
COMPOUND: CC(=O)Nc1nc(C)c(S(=O)(=O)Nc2ccc(C(O)(C(F)(F)F)C(F)(F)F)cc2)s1
RECORDED ENDPOINT: Growth Rate
ENDPOINT VALUE: 0.85
--
COMPOUND: CC(C1CC2CCC1C2)n1c(S)nnc1-c1ccco1 (stereo unspecified)
RECORDED ENDPOINT: Growth Rate
ENDPOINT VALUE: 0.59
--
COMPOUND: CN1CCN(c2ccc(C(=O)Nc3n[nH]c4ccc(Cc5cc(F)cc(F)c5)cc34)c(NC3CCOCC3)c2)CC1 [ENTRECTINIB]
RECORDED ENDPOINT: Growth Rate
ENDPOINT VALUE: -0.98
--
COMPOUND: O=C1COc2cc(C(=O)N(Cc3ccc(C(=O)Nc4ccncn4)cc3)C3CC3)ccc2N1
RECORDED ENDPOINT: Growth Rate
ENDPOINT VALUE: 0.38
--
COMPOUND: COc1cc(C(=O)NC2CCN(C)CC2)ccc1Nc1ncc(C(F)(F)F)c(NCc2ccc(C)cc2N(C)S(C)(=O)=O)n1.O=CO.O=CO
RECORDED ENDPOINT: Growth Rate
ENDPOINT VALUE: -0.77
--
COMPOUND: CC(C)n1cnc2c(Nc3cccc(Cl)c3)nc(N[C@H]3CCCC[C@@H]3N)nc21
RECORDED ENDPOINT: Growth Rate
ENDPOINT VALUE: -0.96
--
COMPOUND: CCn1cnc2c(-c3ccc(F)c(-c4ccc(S(=O)(=O)CC)cc4OC)c3)cnnc21 [DARIGABAT]
RECORDED ENDPOINT: Growth Rate
ENDPOINT VALUE: -0.79
--
COMPOUND: CC(=O)c1c(C)c2cnc(Nc3ccc(N4CCNCC4)cn3)nc2n(C2CCCC2)c1=O [PALBOCICLIB]
RECORDED ENDPOINT: Growth Rate
ENDPOINT VALUE: 0.61
--
COMPOUND: c1ccc2c(c1)SCc1c-2[nH]c2ccccc12
RECORDED ENDPOINT: Growth Rate
ENDPOINT VALUE: -0.95
--
COMPOUND: Cl.N/C(=N\C(=O)c1nc(Cl)c(N)nc1N)NCc1ccccc1 [BENZAMIL HYDROCHLORIDE]
RECORDED ENDPOINT: Growth Rate
ENDPOINT VALUE: 0.83
--
COMPOUND: Oc1cccc(Nc2ccnc3[nH]c4ccccc4c23)c1
RECORDED ENDPOINT: Growth Rate
ENDPOINT VALUE: -0.94
--
COMPOUND: CN(C)CCCN1c2ccccc2Sc2ccc(Cl)cc21.Cl [CHLORPROMAZINE HYDROCHLORIDE]
RECORDED ENDPOINT: Growth Rate
ENDPOINT VALUE: 0.64
--
COMPOUND: COc1cc(Cl)c(C(=O)N[C@@H](CN[C@H]2CC[C@@H](N)CC2)Cc2ccc(C#N)cc2)cc1-c1ccc(CN[C@H](C)c2ccc(C)cc2)o1
RECORDED ENDPOINT: Growth Rate
ENDPOINT VALUE: -0.6
--
COMPOUND: Cc1cc(C)nc(Nc2ncc(C(=O)NCCc3c(C)[nH]c4ccccc34)cn2)c1.Cl
RECORDED ENDPOINT: Growth Rate
ENDPOINT VALUE: 0.92
--
COMPOUND: CCC(=O)O[C@@H](OP(=O)(CCCCc1ccccc1)CC(=O)N1C[C@H](C2CCCCC2)C[C@H]1C(=O)[O-])C(C)C.[Na+] (stereo partly specified)
RECORDED ENDPOINT: Growth Rate
ENDPOINT VALUE: 0.41
--
COMPOUND: Cn1cc(C(=O)O)c2ccc(N3CCC(OCc4c(-c5c(Cl)cccc5Cl)noc4C4CC4)CC3)cc21 [TERN-101]
RECORDED ENDPOINT: Growth Rate
ENDPOINT VALUE: 0.97
--
COMPOUND: Cl.c1ccc2c(c1)CCC[C@H]2Nc1nc2ccccc2[nH]1
RECORDED ENDPOINT: Growth Rate
ENDPOINT VALUE: 0.77
--
COMPOUND: CCn1ccc(Nc2ncc3c(n2)-c2c(nn(C)c2-c2ccc(-c4cnn(C)c4)cc2Cl)CC3)n1
RECORDED ENDPOINT: Growth Rate
ENDPOINT VALUE: -0.49
--
COMPOUND: Cl.Cl.Nc1nccc(-c2c(-c3ccc(F)cc3)ncn2C2CCCCC2)n1
RECORDED ENDPOINT: Growth Rate
ENDPOINT VALUE: 0.63
--
COMPOUND: C[C@@H](Cn1c(=O)[nH]/c(=N\c2ccc(Oc3ccccn3)cc2)n(Cc2ccc(Cl)cc2)c1=O)C(=O)O
RECORDED ENDPOINT: Growth Rate
ENDPOINT VALUE: 0.2
--
COMPOUND: O=C1NC(Nc2ccccc2)=N/C1=C\c1ccc2c(c1)OCO2
RECORDED ENDPOINT: Growth Rate
ENDPOINT VALUE: 0.83
--
COMPOUND: N=C(N)NCCC[C@H](NC(=O)CC1(CC(=O)N2CCN(C(c3ccccc3)c3ccccc3)CC2)CCCC1)C(=O)NCc1ccccc1.O=C(O)C(F)(F)F.O=C(O)C(F)(F)F
RECORDED ENDPOINT: Growth Rate
ENDPOINT VALUE: 0.7
--
COMPOUND: c1ccc(C2CCN(c3cnc4c(N5CCOCC5)nccn34)CC2)cc1
RECORDED ENDPOINT: Growth Rate
ENDPOINT VALUE: 0.74
--
COMPOUND: Clc1cccc(Nc2nccc(NCCCN3CCOCC3)n2)c1
RECORDED ENDPOINT: Growth Rate
ENDPOINT VALUE: 0.27
--
COMPOUND: CC(C)Oc1ccc(Cc2ccc(NC3=NCCN3)cc2)cc1
RECORDED ENDPOINT: Growth Rate
ENDPOINT VALUE: -0.15
--
COMPOUND: CCS(=O)(=O)c1ccc(OC)c(Nc2ncc(-c3cccc(F)c3)o2)c1 [GW621970X]
RECORDED ENDPOINT: Growth Rate
ENDPOINT VALUE: -0.48
--
COMPOUND: CN1CCC(C#N)(NC(=O)[C@@H](NC(=O)N2CCOCC2)C(C)(C)C)CC1
RECORDED ENDPOINT: Growth Rate
ENDPOINT VALUE: 0.8
--
COMPOUND: CC(=O)c1ccc2c(c1)/C(=C(/NC1CCN(C)CC1)c1ccc3c(c1)OCO3)C(=O)N2
RECORDED ENDPOINT: Growth Rate
ENDPOINT VALUE: -0.84
--
COMPOUND: CC1(C)C(=O)N([C@H]2CCc3c(O)cccc32)c2nc(Nc3cccc(CN4CCCC4)c3)ncc21
RECORDED ENDPOINT: Growth Rate
ENDPOINT VALUE: -0.69
--
COMPOUND: CN(C)C(=O)c1cc2cnc(Nc3ccc(N4CCN(CCCCNC(=O)COc5cccc6c5C(=O)N(C5CCC(=O)NC5=O)C6=O)CC4)cn3)nc2n1C1CCCC1 (stereo unspecified)
RECORDED ENDPOINT: Growth Rate
ENDPOINT VALUE: 0.52
--
COMPOUND: Cc1cc(Nc2cc(N)ncn2)c(=O)n2c1C(=O)NC21CCCCC1 [TOMIVOSERTIB]
RECORDED ENDPOINT: Growth Rate
ENDPOINT VALUE: 0.32
--
COMPOUND: c1ccc(C(OC2CCN(CCCc3nnn[nH]3)CC2)c2ccccc2)cc1
RECORDED ENDPOINT: Growth Rate
ENDPOINT VALUE: 0.35
--
COMPOUND: CN1CCC[C@H]1c1cccnc1 [NICOTINE]
RECORDED ENDPOINT: Growth Rate
ENDPOINT VALUE: 0.4
--
COMPOUND: CCOc1ccccc1C(=O)NCC1(N2CCN(CC)CC2)CCCCC1
RECORDED ENDPOINT: Growth Rate
ENDPOINT VALUE: 0.23
--
COMPOUND: CCOCCn1cc(C(=O)Nc2ccc(-n3nc(-c4cccnc4)cc3C(F)(F)F)cn2)ccc1=O [BI 1935]
RECORDED ENDPOINT: Growth Rate
ENDPOINT VALUE: 0.1
